System: Plasmodium falciparum
assay_overview: GSK_TCMDC: Inhibition of Plasmodium falciparum 3D7 in whole red blood cells, using parasite LDH activity as an index of growth. Test compounds present at 2uM
Assay type: functional
observed_property: Inhibition
Respond with the figure and its unit, in that order.

Item "CCCCCCCCc1c(C)nc(C)c(C#N)c1O" has what recorded Inhibition? 97%

Entry to check: "COc1ccc2nc3cc(Cl)ccc3c(Nc3ccc(O)c(CN4CC5CCC(CC5)C4)c3)c2c1.Cl" 100%

Then this compound: "Cc1ccccc1Nc1nc(Nc2ccccc2)c2ccccc2n1.Cl" 100%

// same read-out, input: Cc1cccc2nc(-c3cccc(-c4ccc(NC(=O)C(C)CN5CCOCC5)cc4)c3)[nH]c12 (stereo not given) 93%

Repeat for the following compound: "O=C(Nc1cc(Cl)cc(Cl)c1)c1cc(Cl)c(=O)n(Cc2ccc(Cl)cc2)c1" 89%
